The measurements presented in this section are drawn from the supplement of paper PMC10646978.

Test system: RAW-Dual (murine macrophage reporter line)
experimentNotes: IRF reporter (Lucia luciferase) activity fold change vs agonist alone; higher = enhanced IRF activity
testSettings: modulator concentration 10 µM; agonist: 3'3'-cGAMP 10 ug/mL
Hi, to clarify the labels: satisfied covers IRF reporter from 1 upward, not satisfied covers anything below 1.

Ic1cccc(Cn2nnc(-c3ccccc3)n2)c1
not satisfied
Cl.OC(CC#CCN1CCCC1)(c1ccccc1)c1ccccc1
not satisfied
COc1ccc(C)c2sc(=NC(=O)c3ccccc3)n(C)c12
not satisfied
Cn1nc(CNS(=O)(=O)c2cccc(C(F)(F)F)c2)c2c1CCOC2
not satisfied
N#CCCC1(CCC#N)S(=O)(=O)CC(c2ccc(Cl)cc2)CS1(=O)=O
not satisfied
N=C1NC(=O)C(=Cc2ccc(-c3cccc(Cl)c3)o2)S1
satisfied
COc1ccc(OC)c(Nc2nc(-c3c(C)nc4sccn34)cs2)c1
not satisfied
O=[N+]([O-])c1ccc2nc(S)sc2c1
not satisfied

Ask | Check this compound for IRF reporter at or above 1: Cc1nc(N(C)C)nc(C)c1NC(=O)CC(C)C
Reply | satisfied
